Hi there, I'd appreciate the recorded melting point for every entry that follows.

Asked: Param item = Cc1ccc2ccc(NC(=O)N3CCC4(CC3)NC(=O)c3ccccc34)nc2c1 [Example 3] ; retrieve measured melting point.
Given back: 194 to 196 °C

Asked: Tell me the measured melting point of CC(=O)c1ccc(NC(=O)N2CCC3(CC2)NC(=O)Cc2ccccc23)cc1 [Example 8] , please.
Given back: > 300 °C

Asked: Given the entry Cc1ccc2ccc(NC(=O)N3CCC4(CC3)NC(=O)Cc3ccccc34)nc2c1 [Example 7] , report its measured melting point.
Given back: 216 to 218 °C

Asked: Item under review: O=C1Cc2ccccc2C2(CCN(C(=O)Nc3cn(-c4ccc5ccccc5n4)cn3)CC2)N1 [Example 9] . Reported melting point?
Given back: 264 to 266 °C

Asked: # lookup: melting point of O=C1Cc2ccccc2C2(CCN(C(=O)Nc3cnc(-c4ccccc4)cn3)CC2)N1 [Example 6]
Given back: 237 to 239 °C

Asked: Please give the measured melting point for this compound: O=C1Cc2ccccc2C2(CCN(C(=O)Nc3cnc(C(=O)c4ccccc4)cn3)CC2)O1 [Example 46]
Given back: 128 to 131 °C

Asked: Query: melting point; subject: O=C1Cc2ccccc2C2(CCN(C(=O)Nc3cn(-c4cccc(OC(F)F)c4)cn3)CC2)N1 [Example 14]
Given back: 161 to 163 °C

Asked: Entry O=C1Cc2ccccc2C2(CCN(C(=O)Nc3ccc(Cl)c(Cl)c3)CC2)N1 [Example 16] has what melting point?
Given back: > 300 °C

Asked: What does the record list as melting point for O=C1Cc2ccccc2C2(CCN(C(=O)Nc3ncc(-c4ccccc4)s3)CC2)N1 [Example 18] ?
Given back: > 300 °C

Asked: GET /values?readout=melting point&item= Cc1ccc2ccc(NC(=O)N3CCC4(CC3)OC(=O)c3ccccc34)nc2c1 [Example 24]
Given back: 178 to 180 °C

Asked: Requested read-out: melting point. Entry: CC(C)=Cc1cnc(NC(=O)N2CCC3(CC2)NC(=O)Cc2ccccc23)cn1 [Example 11]
Given back: 232.9 to 236.5 °C

Asked: Recorded melting point of O=C1OC2(CCN(C(=O)Nc3cn(-c4cccc(CCO)c4)cn3)CC2)c2ccccc21 [Example 37] , please.
Given back: 99 to 100 °C
